System: Aurora kinase A (Homo sapiens); also: in the data inactive means no Kd found up to 30 µM
Sequence (O14965 whole entry): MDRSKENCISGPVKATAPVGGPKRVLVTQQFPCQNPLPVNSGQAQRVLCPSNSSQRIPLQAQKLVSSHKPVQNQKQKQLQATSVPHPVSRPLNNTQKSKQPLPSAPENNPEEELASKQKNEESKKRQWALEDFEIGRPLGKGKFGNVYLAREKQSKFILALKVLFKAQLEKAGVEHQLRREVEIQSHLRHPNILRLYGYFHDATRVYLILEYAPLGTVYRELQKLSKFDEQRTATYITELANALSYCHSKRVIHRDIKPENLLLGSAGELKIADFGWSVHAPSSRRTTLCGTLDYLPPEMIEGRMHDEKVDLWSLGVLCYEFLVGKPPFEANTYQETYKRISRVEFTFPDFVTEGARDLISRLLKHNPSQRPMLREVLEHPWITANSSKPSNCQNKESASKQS
The source made the active and inactive calls.
Please answer using one outcome listed in Yes = active, No = inactive

>>> assigned_class("CC[C@@H]1C(=O)N(C)c2cnc(Nc3ccc(C(=O)N[C@H]4CC[C@H](N5CCN(CC6CC6)CC5)CC4)cc3OC)nc2N1C(C)C")
"No"
>>> assigned_class("Cn1cc(-c2ccc3nnc(C(F)(F)c4ccc5ncccc5c4)n3n2)cn1")
"No"
>>> assigned_class("COC(=O)[C@@]1(O)C[C@H]2O[C@]1(C)n1c3ccccc3c3c4c(c5c6ccccc6n2c5c31)C(=O)NC4 [K-252A]")
"Yes"
>>> assigned_class("O=c1sn(-c2cccc3ccccc23)c(=O)n1Cc1ccccc1")
"No"
>>> assigned_class("CNS(=O)(=O)Nc1nccc(Cc2c(C)c3ccc(Oc4ncccn4)cc3oc2=O)c1F")
"No"
>>> assigned_class("C[C@@H](Nc1cc(F)cc(F)c1)c1cc(C(=O)N(C)C)cc2c(=O)cc(N3CCOCC3)oc12")
"No"

Call for entry CNC(=O)c1cc(Oc2ccc(NC(=O)Nc3ccc(Cl)c(C(F)(F)F)c3)c(F)c2)ccn1 :
No

Request: CO[C@H]1C[C@@H]2CC[C@@H](C)[C@@](O)(O2)C(=O)C(=O)N2CCCC[C@H]2C(=O)O[C@H]([C@H](C)C[C@@H]2CC[C@@H](OCCO)[C@H](OC)C2)CC(=O)[C@H](C)/C=C(\C)[C@@H](O)[C@@H](OC)C(=O)[C@H](C)C[C@H](C)/C=C/C=C/C=C/1C
No

====

System: Eukaryotic translation initiation factor 2-alpha kinase 1 (Homo sapiens, UniProt Q9BQI3); also: in the data inactive means no Kd found up to 30 µM
Sequence (Q9BQI3 whole entry): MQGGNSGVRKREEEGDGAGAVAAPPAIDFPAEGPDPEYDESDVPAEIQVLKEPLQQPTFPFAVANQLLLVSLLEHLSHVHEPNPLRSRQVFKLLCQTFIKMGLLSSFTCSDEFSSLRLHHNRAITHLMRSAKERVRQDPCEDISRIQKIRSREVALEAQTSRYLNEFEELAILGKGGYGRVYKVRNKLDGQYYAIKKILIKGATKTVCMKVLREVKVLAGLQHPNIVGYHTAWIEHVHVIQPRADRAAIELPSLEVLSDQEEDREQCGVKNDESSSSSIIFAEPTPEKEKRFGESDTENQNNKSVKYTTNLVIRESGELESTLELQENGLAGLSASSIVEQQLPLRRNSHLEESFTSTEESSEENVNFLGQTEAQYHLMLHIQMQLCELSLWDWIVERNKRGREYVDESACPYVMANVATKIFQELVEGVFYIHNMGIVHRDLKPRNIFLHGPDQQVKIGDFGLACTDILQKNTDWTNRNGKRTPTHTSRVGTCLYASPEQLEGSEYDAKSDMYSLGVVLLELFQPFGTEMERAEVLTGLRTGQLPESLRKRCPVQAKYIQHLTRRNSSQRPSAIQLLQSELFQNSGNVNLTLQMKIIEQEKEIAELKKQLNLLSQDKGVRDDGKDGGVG
Activity calls are given as the source filed them.
Hi! Could you answer with just one of these? class 1 (active), class 0 (inactive)

Solved cases below.
>>> assigned_class("Cn1cc(-c2ccc3nnc(C(F)(F)c4ccc5ncccc5c4)n3n2)cn1")
"class 0"
>>> assigned_class("CCCS(=O)(=O)Nc1ccc(F)c(C(=O)c2c[nH]c3ncc(-c4ccc(Cl)cc4)cc23)c1F")
"class 0"
>>> assigned_class("C1=C/COCc2cc(ccc2OCCN2CCCC2)Nc2nccc(n2)-c2cccc(c2)COC/1")
"class 0"

Test call for this compound, please: CCN1CCN(Cc2ccc(-c3cc4c(N[C@H](C)c5ccccc5)ncnc4[nH]3)cc2)CC1
class 0

Entry to check: CNC(=O)c1ccc(-c2cnc3ncc(Cc4ccc5ncccc5c4)n3n2)cc1F
class 0

One more compound: COC(=O)N[C@@H](C)CNc1nccc(-c2cn(C(C)C)nc2-c2cc(Cl)cc(NS(C)(=O)=O)c2F)n1
class 0

Also, C[C@@H](Nc1cc(F)cc(F)c1)c1cc(C(=O)N(C)C)cc2c(=O)cc(N3CCOCC3)oc12 please.
class 0

Also need CC(C)Nc1cc(-c2c[nH]c(C(=O)N[C@H](CO)c3cccc(Cl)c3)c2)c(Cl)cn1 , thanks.
class 0

And what about the compound Cc1cc2c(F)c(Oc3ncnn4cc(OC[C@@H](C)OC(=O)[C@H](C)N)c(C)c34)ccc2[nH]1 [BRIVANIB ALANINATE] ?
class 0

Next compound up: CC[C@@H]1C(=O)N(C)c2cnc(Nc3ccc(C(=O)N[C@H]4CC[C@H](N5CCN(CC6CC6)CC5)CC4)cc3OC)nc2N1C(C)C
class 0

Another compound to look at: Cn1ncc(Cl)c1-c1cc(C(=O)N[C@H](CN)Cc2cccc(F)c2)sc1Cl
class 0

Also COc1cc2nccc(Oc3ccc(NC(=O)Nc4cc(C)on4)c(Cl)c3)c2cc1OC , if possible.
class 0

Also, Cc1cc([C@@H](C)Nc2ccccc2C(=O)O)c2nc(N3CCOCC3)cc(=O)n2c1 please.
class 0

Field entry: OCCn1cc(-c2cnc3nnn(Cc4ccc5ncccc5c4)c3n2)cn1
class 0

How about C[C@@H](c1ccc2nccn2c1)n1nnc2ncc(-c3cnn(C)c3)nc21 ?
class 0

Record: CCS(=O)(=O)N1CC(CC#N)(n2cc(-c3ncnc4[nH]ccc34)cn2)C1
class 1
